Test: M. tuberculosis growth inhibition, HTS (AID 449762);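 also: bacterial growth assessed after seven days of incubation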
Details: M. tuberculosis H37Rv growth inhibition, 7H9 media; at 25 µM; active compounds read high
In all, about 330,000 compounds went through this assay and about 1,900 (0.58%) were called active. About 4% were inconclusive and are not listed. Not all results are given here. Measured potencies and affinities stand elsewhere.
Overview of recorded inhibition for various compounds
Unit % implied. Number only.

Here are 8 compounds together with their reported answers.
>  <Compound>
C=CCc1c(C)nc(C)nc1N/N=C/c1ccc([N+](=O)[O-])cc1

>  <inhibition (%)>
-6.42

$$$$
>  <Compound>
CC(=O)N1N=C(c2ccc(Cl)cc2)CC1c1ccc([N+](=O)[O-])cc1 (configuration not stated)

>  <inhibition (%)>
-2.62

$$$$
>  <Compound>
COCCN1CCN(C(=O)c2cc(COc3cc(C)ccc3C)on2)CC1

>  <inhibition (%)>
-2.97

$$$$
>  <Compound>
CC1CCCC(NC(=O)COC(=O)c2sc3ccccc3c2Cl)C1C (configuration not stated)

>  <inhibition (%)>
-11.1

$$$$
>  <Compound>
COc1ccc(C(=O)OCC(=O)Nc2c(C)cccc2C)cc1

>  <inhibition (%)>
0.88

$$$$
>  <Compound>
Cc1csc(SCCN2C(=O)c3ccccc3C2=O)n1

>  <inhibition (%)>
1.44

$$$$
>  <Compound>
CCCCCN(C(=O)CCC(=O)OCCOc1cccc(C)c1)c1c(N)n(CCCC)c(=O)[nH]c1=O

>  <inhibition (%)>
44.3

$$$$
>  <Compound>
CCOC(=O)Cn1c(Br)nc2c1c(=O)[nH]c(=O)n2C

>  <inhibition (%)>
2.17

$$$$

## Input What value of inhibition has been recorded for this entry: "CCn1c2ccccc2c2nnc(SCCN3CCCCC3)nc21"
## Output 5.94

## Input What value of inhibition has been recorded for this entry: "NC(=O)CCNC(=O)c1ccc(Cl)cc1"
## Output -5.92

## Input What value of inhibition has been recorded for this entry: "CCN1CCN(Cc2ccc(NC(=O)c3ccc(C)c(NC(=O)c4ccc5n[nH]nc5c4)c3)cc2C(F)(F)F)CC1"
## Output 4.3

## Input What value of inhibition has been recorded for this entry: "Cc1cccc(C(=O)NNC(=O)c2cccc(C)c2)c1"
## Output -16.6

## Input What value of inhibition has been recorded for this entry: "Cc1cc(C=C2C(=O)N(C)C(=S)N(C)C2=O)c(C)n1C1CCCC1"
## Output 64.7

## Input What value of inhibition has been recorded for this entry: "CN(C(=O)COC(=O)c1ccc(Cl)cc1N)C1CCCCC1"
## Output -0.1
